- Test system: 429239-143-T-J1-PDC complex spheroid viability;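 further: luminescence signal used as surrogate measure of viable cells; spheroids exposed to compounds for seven days before readout; 100% = DMSO vehicle control viability as luminescence relative to vehicle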
- protocol: Anticancer human tumor 429239-143-T-J1-PDC patient-derived small cell lung carcinoma cell line growth inhibition [POLQ]
- measurement-parameters: second compound 0.0316 µM; first compound 0.1 µM; hits give low values
// viability, T/C lookup, one value per entry
Write down the numeric answer in % and omit the unit.

compound	viability, T/C [%]
C=CC(=O)N1CCN(c2nc(=O)n(-c3c(C)ccnc3C(C)C)c3nc(-c4c(O)cccc4F)c(F)cc23)C(C)C1 (stereo not given) + Cc1cccc(N(C)C(=O)C2C(O)CCN2c2nc(C)cc(C(F)(F)F)c2C#N)c1	85

I have this compound here, COc1cc2cc(C(=O)CCC(=O)O)sc2cc1OC + Nc1ccc(C#CCN(C(=O)Cc2ncc(C(F)(F)F)cc2C(F)(F)F)c2ccc(F)cc2)nn1 , and I need its recorded viability, T/C.
108

I have this compound here, CC(C)n1c(=O)n(C)c2cnc3cc(F)c(-c4ccc(OCCCN5CCCCC5)nc4)cc3c21 + COC1C(OC(N)=O)C(O)C(Oc2ccc3c(O)c(NC(=O)c4ccc(O)c(CC=C(C)C)c4)c(=O)oc3c2C)OC1(C)C , and I need its recorded viability, T/C.
86.6

I have this compound here, CC[C@@]1(O)C(=O)OCc2c1cc1n(c2=O)Cc2cc3c(CN(C)C)c(O)ccc3nc2-1 + COC1C(OC(N)=O)C(O)C(Oc2ccc3c(O)c(NC(=O)c4ccc(O)c(CC=C(C)C)c4)c(=O)oc3c2C)OC1(C)C , and I need its recorded viability, T/C.
19.8

I have this compound here, CCc1c2c(nc3ccc(O)cc13)-c1cc3c(c(=O)n1C2)COC(=O)[C@]3(O)CC + COC1C(OC(N)=O)C(O)C(Oc2ccc3c(O)c(NC(=O)c4ccc(O)c(CC=C(C)C)c4)c(=O)oc3c2C)OC1(C)C , and I need its recorded viability, T/C.
20
